Test system: E21 (patient-derived glioblastoma stem cells of mesenchymal subtype);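 note: cell Painting imaging in 384-well plates, CellProfiler features reduced to at least 20 principal components, Euclidean distance versus same-plate DMSO vehicle wells (0.1% v/v), median over six images per well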
Assay: phenotypic distance (Euclidean, principal components) from DMSO controls (arbitrary units); higher = stronger morphological change
Settings: 1000 nM; exposure time: 72 h
Structures can show the parent of a compound that is named as a salt.
Please respond with reported phenotypic distance for every item in the list.

Your task in this section: give phenotypic distance for each listed record.
1. O=[N+]([O-])c1ccc2c(c1)S(=O)(=O)C=C2 [Stattic]
2. COC(=O)[C@@H]1[C@H]2C[C@H]3c4[nH]c5ccccc5c4CCN3C[C@@H]2CC[C@@H]1O [Yohimbine hydrochloride]
3. NC1CCN(c2nc3c(cc2F)c(=O)c(C(=O)O)cn3-c2ccc(F)cc2F)C1 (stereo not given) [Tosufloxacin hydrochloride]
4. COc1cc(/C=C/C(=O)N2CCC=CC2=O)cc(OC)c1OC [Piperlongumine]
5. COc1ccc2c(c1)CC[C@@H]1[C@@H]2CC[C@]2(C)[C@@H](NCCCCCCN3C(=O)CCC3=O)CC[C@@H]12
6. Cc1cc(C)c(CN2CCc3c(Cl)cc(-c4c(C)noc4C)c(Cl)c3C2=O)c(=O)[nH]1
7. CCn1c(-c2nonc2N)nc2cnc(Oc3cccc(NC(=O)c4ccc(OCCN5CCOCC5)cc4)c3)cc21
8. CC(NCCC(c1ccccc1)c1ccccc1)c1ccccc1 (stereo not given) [Fendiline hydrochloride]

Result:
1. 11.2
2. 0.456
3. 0.751
4. 3.07
5. 1.42
6. 0.536
7. 2.16
8. 0.668

Your task in this section: give phenotypic distance for each listed record.
1. COc1cc(NS(C)(=O)=O)ccc1Nc1c2ccccc2nc2ccccc12 [Amsacrine]
2. CO[C@H]1C(=O)[C@]2(C)[C@@H](OC)C[C@H]3OC[C@@]3(OC(C)=O)[C@H]2[C@H](OC(=O)c2ccccc2)[C@]2(O)C[C@H](OC(=O)[C@H](O)[C@@H](NC(=O)OC(C)(C)C)c3ccccc3)C(C)=C1C2(C)C [Cabazitaxel]
3. COC(=O)Nc1nc2cc(Sc3ccccc3)ccc2[nH]1 [Fenbendazole]

Result:
1: 5.68; 2: 8.51; 3: 7.35

Your task in this section: give phenotypic distance for each listed record.
1. Cc1ccc(S(=O)(=O)/C=C/C#N)cc1 [Bay 11-7082]
2. CC(C)C[C@H](NC(=O)[C@H](Cc1ccccc1)C[C@@H](O)[C@H](Cc1ccccc1)NC(=O)OC(C)(C)C)C(=O)N[C@@H](Cc1ccccc1)C(N)=O [L-685,458]

Result:
1. 2.09
2. 0.724

Your task in this section: give phenotypic distance for each listed record.
1. CCOC(=O)OC(C)OC(=O)[C@@H]1N2C(=O)[C@@H](NC(=O)[C@H](N)c3ccccc3)[C@H]2SC1(C)C (stereo not given in full) [Bacampicillin hydrochloride]
2. Cc1ccc(NC(=O)c2ccc3c(c2)OCCO3)cc1NC(=O)c1ccc2nc(OCCN3CCCC3)ccc2c1

Result:
1: 0.7; 2: 4.03
